- Tested on: RXRa homodimer (NR concentration 180 nM)
- ASSAY COMMENT: PBM binding z-score (relative to random genomic background probes); higher = stronger binding; sequences stand for … in GC…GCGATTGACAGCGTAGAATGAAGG
Class YES: PBM binding z-score at least 0.8. Class NO: PBM binding z-score below 0.8.

Solved cases below.
SEQ STRING: TCTTGTAGATCAACAGGAGGTTTAGAAAGATCGA
QUALITATIVE LABEL: NO
--
SEQ STRING: CCTACTGGGCCATAAAGGTCATTGATGCCGATAA
QUALITATIVE LABEL: YES

Problem: Threshold query (PBM binding z-score >= 0.8) on CAAACTAGGTCACAGAGGTCAAAGTACGTGCGTA
Result: YES

Problem: Threshold query (PBM binding z-score >= 0.8) on CGTCCAAGGTCAGCAGGTCAGTGATAGCGACGTG
Result: YES

Problem: Threshold query (PBM binding z-score >= 0.8) on AATACAGGGTCATCGTAGGCCTGAGTACGCACAG
Result: YES

Problem: Threshold query (PBM binding z-score >= 0.8) on GCTCGGAGGACAAGGTCATAGCTTTGTCCGTAGA
Result: YES

Problem: Threshold query (PBM binding z-score >= 0.8) on TCGAGGAGGTTAGGGGCATTCAGAATGGCGTCGA
Result: YES

Problem: Threshold query (PBM binding z-score >= 0.8) on ACTATTAGTTTAGACGAGGGCAACCGATAGGTTG
Result: NO

* * *

- Tested on: PXR:RXRa (NR concentration 270 nM, RXRa partner concentration 90 nM)
- ASSAY COMMENT: PBM binding z-score (relative to random genomic background probes); higher = stronger binding; sequences stand for … in GC…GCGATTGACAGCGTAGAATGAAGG
VALUE TYPE: PBM binding z-score
Give your answer as a number; write no unit.

Problem: May I ask what PBM binding z-score has been recorded for CCTCGGAGGACAACTGGAGGTCAGAGCTGCCAGA ?
Result: 2.52

Problem: May I ask what PBM binding z-score has been recorded for TCTTGTAGATCAGCAGGTTGAGAAAGCTGGCCAA ?
Result: 0.181

Problem: May I ask what PBM binding z-score has been recorded for TAAATGAGGTTAAAGATCAGGGAACGTGGCGTCG ?
Result: 2.36

Problem: May I ask what PBM binding z-score has been recorded for AGTATTAGTTGACTTAGGGCAACCGATACGACGC ?
Result: 0.237

Problem: May I ask what PBM binding z-score has been recorded for GCTAGCAGGCCATTTGGGTCACTCACTGACGGGC ?
Result: 0.354

Problem: May I ask what PBM binding z-score has been recorded for TCTTGTAGATTAATAGAGGTTAAGAAAGTGCGCT ?
Result: 3.4

* * *

- Test system: PPARg:RXRa 90nM:30nM, anti-RXR (NR concentration 90 nM, RXRa partner concentration 30 nM)
- ASSAY COMMENT: PBM binding z-score (relative to random genomic background probes); higher = stronger binding; sequences stand for … in GC…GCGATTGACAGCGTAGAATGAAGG
VALUE TYPE: PBM binding z-score

SEQ STRING: TCGAGTAGGTTAGTCGGGGTATTCAGCCAACATA
PBM binding z-score: 0.688
--
SEQ STRING: CTCGAAAGGTCGTGCTCATGTGAGTATACCAAAC
PBM binding z-score: 2.6

Problem: May I ask what PBM binding z-score has been recorded for TAGCTTAGGTCAGATCGGGCCAGTATACGCTATA ?
Result: 0.412

Problem: May I ask what PBM binding z-score has been recorded for CGTCAAAGTTCAACTACGGTAACGTAAAGCACGC ?
Result: 4.26

* * *

- Test system: RARg homodimer (NR concentration 270 nM)
- ASSAY COMMENT: PBM binding z-score (relative to random genomic background probes); higher = stronger binding; sequences stand for … in GC…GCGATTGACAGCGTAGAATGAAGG
Class 1: PBM binding z-score at least 4. Class 0: PBM binding z-score below 4.

Solved cases below.
SEQ STRING: AGTCCAAGTTCAGGACGAGGTAACGTAAAGCACG
QUALITATIVE LABEL: 0
//
SEQ STRING: ACTACAGGGTCATCGTAGGCCAGAGTACGCACAG
QUALITATIVE LABEL: 1

Problem: Threshold query (PBM binding z-score >= 4) on CCTACTGGTCCAAAAAGGTCATTGATGCCGATAA
Result: 1

Problem: Threshold query (PBM binding z-score >= 4) on TCTTGTAGATCATAGGTTAAGAAAGCCGAAGCCT
Result: 0

Problem: Threshold query (PBM binding z-score >= 4) on CAAACTAGGTCAAGGTCAAAGCCGGTTTGTGCCA
Result: 1

Problem: Threshold query (PBM binding z-score >= 4) on TAGCCTAGGTCAGATAGGGCCAGTATACGCTATA
Result: 0

* * *

- System: PPARg:RXRa 270nM:90nM, anti-RXR (NR concentration 270 nM, RXRa partner concentration 90 nM)
- ASSAY COMMENT: PBM binding z-score (relative to random genomic background probes); higher = stronger binding; sequences stand for … in GC…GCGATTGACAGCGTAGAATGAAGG
VALUE TYPE: PBM binding z-score
Give your answer as a number; write no unit.

In the examples that follow, each entry is paired with its recorded PBM binding z-score.
SEQ STRING: CCTACTGGGCCCAAGGTCATTGATTCCAATGCTC
PBM binding z-score: 6.93
--
SEQ STRING: ATCTCTTGGTAAGACTCAGTTCAGTGAAGAACGC
PBM binding z-score: 0.141

Problem: May I ask what PBM binding z-score has been recorded for ATCGAAGGGTCGTGAGGTGAGTATACAGAAAGGC ?
Result: 1.77

Problem: May I ask what PBM binding z-score has been recorded for GCTGCTAGGTCAACTGATGGACAGCTAAAGCTCG ?
Result: 2.99

Problem: May I ask what PBM binding z-score has been recorded for CCTTACGGGTCAAGGTTATAGAACGGGTGGTACG ?
Result: 4.67

Problem: May I ask what PBM binding z-score has been recorded for ATCTCTAGGAAACCAAGTTCAGTGAATGCCGAAC ?
Result: 0.0648

Problem: May I ask what PBM binding z-score has been recorded for TTACCAAGGTGACGGTCGTTGATCCCTCTGTAGA ?
Result: 1.29

* * *

- System: THRa homodimer (NR concentration 90 nM)
- ASSAY COMMENT: PBM binding z-score (relative to random genomic background probes); higher = stronger binding; sequences stand for … in GC…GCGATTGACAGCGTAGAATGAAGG
VALUE TYPE: PBM binding z-score
Give your answer as a number; write no unit.

In the examples that follow, each entry is paired with its recorded PBM binding z-score.
SEQ STRING: GCTAGCAGGCCATTCGGGTCACTCAATGACGGGC
TESTED ON: THRa homodimer (NR concentration 90 nM)
VALUE TYPE: PBM binding z-score
VALUE: 1.75
//
SEQ STRING: CGTCAAAGTTTAAGGTAACGTAACAGAAAGCAGC
TESTED ON: THRa homodimer (NR concentration 90 nM)
VALUE TYPE: PBM binding z-score
VALUE: 3.1
//
SEQ STRING: CCTAGGAGGCCAATCTGGGTCACTCAAGGCTTGA
TESTED ON: THRa homodimer (NR concentration 90 nM)
VALUE TYPE: PBM binding z-score
VALUE: 0.462
//
SEQ STRING: ACTAGCAGGCCAAGGGTAACTCAAGATTAGTCCG
TESTED ON: THRa homodimer (NR concentration 90 nM)
VALUE TYPE: PBM binding z-score
VALUE: -0.321
//
SEQ STRING: GCAGACAGGTGAAACGCAGGTAACTGAGGGTGGC
TESTED ON: THRa homodimer (NR concentration 90 nM)
VALUE TYPE: PBM binding z-score
VALUE: -0.377

Problem: May I ask what PBM binding z-score has been recorded for CGAACTAGGTCATCCAGTACAGTGAATACATTGA ?
Result: 1.43

Problem: May I ask what PBM binding z-score has been recorded for GTACCAAGGTGAATAGGTCATTGATGAGTAGGCG ?
Result: 0.757

Problem: May I ask what PBM binding z-score has been recorded for GCAGACAGGTGAAATGCAGGTAACTCAGGGTGGC ?
Result: -0.107

Problem: May I ask what PBM binding z-score has been recorded for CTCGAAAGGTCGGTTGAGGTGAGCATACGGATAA ?
Result: 1.56

Problem: May I ask what PBM binding z-score has been recorded for CCGACTGGGGCAGAAAGGTTACCAAACCATCCGG ?
Result: -0.598

Problem: May I ask what PBM binding z-score has been recorded for GCTCGGAGGACAAGGTCGGAGCTTTGTCCGTAGA ?
Result: 0.277

Problem: May I ask what PBM binding z-score has been recorded for ATCGCAAGGTCGAGGTGAGTATAGAGAAAGGGAA ?
Result: 0.694

Entry source: the supplement of paper PMC6555819
